Exercise: for every item that follows, state its recorded yeast fitness.
B1: tRNA (parent)
chain: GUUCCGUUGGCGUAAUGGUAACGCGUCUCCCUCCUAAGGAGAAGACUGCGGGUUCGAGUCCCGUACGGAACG

variants of: B1; test: yeast fitness relative to wild type (ratio to wild type); higher = fitter; tRNA-Arg(CCU), competitive growth, 37 C, YPD
Variants at the floor of the assay were thinned out.
Answers are plain numbers.

Some solved entries appear below for comparison.
{"SEQUENCE_ENTRY": "GUUCCGUUGGCGUAUUGGUAACGCGUCUCCCACCUAAGGAGAAGACUGCAAGUUCCAGUCGCGUACGGAACG [A15U U32A G50A G51A G56C C61G]", "OBSERVED": 0.538}
{"SEQUENCE_ENTRY": "GUUCCGUUGGCAUAAUGCUAACGCGUCUCCCUCCUAAGGAGUAGACUGCGGGUUCGAGUCCCGUACGGAGCG [G12A G18C A42U A70G]", "OBSERVED": 0.598}
{"SEQUENCE_ENTRY": "GUUCCGAUGGCGUAAUGGUAACGCGUCUCCCUCCUAAGGAGAAGACUGCGGGUUCGAGUCCCGUACGGCACG [U7A A69C]", "OBSERVED": 0.794}
{"SEQUENCE_ENTRY": "GUUCGGUUGGCGUAAUGGUAACGCGUCUCCCUCCUAAGCAGAAGACUGCGGGUUCGAGUCCCGUACGGUACG [C5G G39C A69U]", "OBSERVED": 0.538}
{"SEQUENCE_ENTRY": "GUUCCGUUGGUGUAAUGCUAGCGCGUCUCCCUCCUAAGGAGAAGACUGCGGGUUCGAGUCCCGUACGGAACG [C11U G18C A21G]", "OBSERVED": 0.571}
{"SEQUENCE_ENTRY": "GUUCCGUUGGCGUAAUGGUAACGCGCAUCCCUCCUAAGGAGAAGACUGCGGGUUCGAGUCCCGUACGGAACG [U26C C27A]", "OBSERVED": 0.859}

Quick one: give me yeast fitness for each item below, same order please.
1. GUUCCAUUGGCGUAAUGGUAACGCGUCUCCCUCCUAAGGAGAAGACUGCGGGUUCGAGUCCCGGACGGAACG [G6A U64G]
2. GUUCCGUUGGCGUAAUGGUAACGCCUCUCCCUCUUAAGGGGAAGACUGCGGGUACGAGUCCCGUGCGGAACG [G25C C34U A40G U54A A65G]
3. GUUCCGUUGGCGUAGUGGUAACCCGUCUCCCUCCUAAGGAGAAGACUGCGGGUUCGAGUCCCGUACGGAACG [A15G G23C]
4. GUUACGUUGGCGUAAUGGUAACGCGUCUCCCUCCUAAGGAGAAGACUCCGGGUUCGAGUCCCGUACGGAACG [C4A G48C]
5. GUUCCGUUGGCGUAAUGGUAACGCGUCUCCCUCCUAAGGAGAAGACAGCAGGUUCGAGUCCCGUACGGAACG [U47A G50A]

0.795
0.582
0.712
0.749
0.831
